system: HepG2 cells (mitochondrial COXII DNA); details: HepG2, 14-day treatment, 100 μM
result type: Average ΔΔCt ± s.d. MitCOXII-rDNA
I only need the number, thanks.

Some compounds with known Average ΔΔCt ± s.d. MitCOXII-rDNA results, for comparison:
smiles data	Average ΔΔCt ± s.d. MitCOXII-rDNA
Nc1nc(=O)n([C@@H]2C=C[C@H](CO)O2)cc1F	2.24
Nc1ccn([C@@H]2C=C[C@H](CO)O2)c(=O)n1	−3.32
Nc1ccn([C@H]2O[C@@H](CO)C=C2F)c(=O)n1	−0.20
Nc1nc(=O)n([C@H]2O[C@@H](CO)C=C2F)cc1F	−0.02
Nc1ccn([C@@H]2C=C(F)[C@H](CO)O2)c(=O)n1	0.48

Now take the following compound into account.
IN: Bench note: what Average ΔΔCt ± s.d. MitCOXII-rDNA did "Nc1nc(=O)n([C@@H]2C=C(F)[C@H](CO)O2)cc1F" show?
OUT: 0.42

====

system: HepG2 cells (mitochondrial COXII DNA); details: HepG2, 14-day treatment, 100 μM
Reported Fold difference in COXII DNA levels normalized for rDNA (range) relative to control is given for each of the following molecules.

IN: Bench note: what Fold difference in COXII DNA levels normalized for rDNA (range) relative to control did "Nc1ccn([C@@H]2C=C(F)[C@H](CO)O2)c(=O)n1" show?
OUT: 0.72 (0.79-0.65)

IN: Bench note: what Fold difference in COXII DNA levels normalized for rDNA (range) relative to control did "Nc1ccn([C@@H]2C=C[C@H](CO)O2)c(=O)n1" show?
OUT: 9.99 (5.92-16.85)

IN: Bench note: what Fold difference in COXII DNA levels normalized for rDNA (range) relative to control did "Nc1nc(=O)n([C@@H]2C=C(F)[C@H](CO)O2)cc1F" show?
OUT: 0.75 (0.82-0.68)

IN: Bench note: what Fold difference in COXII DNA levels normalized for rDNA (range) relative to control did "Nc1ccn([C@H]2O[C@@H](CO)C=C2F)c(=O)n1" show?
OUT: 1.15 (0.87-1.52)

IN: Bench note: what Fold difference in COXII DNA levels normalized for rDNA (range) relative to control did "Nc1nc(=O)n([C@H]2O[C@@H](CO)C=C2F)cc1F" show?
OUT: 1.01 (0.65-1.58)

IN: Bench note: what Fold difference in COXII DNA levels normalized for rDNA (range) relative to control did "Nc1nc(=O)n([C@@H]2C=C[C@H](CO)O2)cc1F" show?
OUT: 4.72 (3.16-7.04)
